Assay: Selectivity index, ratio of IC50 for human MAO-A to IC50 for human MAO-B
observable: Ratio IC50

These recorded examples may help you get a feel for the data.
compound="C#CCNC1CCc2c(SCc3cccc(OC)c3)cccc21 (configuration not stated)" observable="Ratio IC50" reported=0.48
compound="C#CCNC1CCc2c(SCc3ccc(Cl)c(Cl)c3)cccc21 (configuration not stated)" observable="Ratio IC50" reported=0.026

1 = C#CCNC1CCc2c(SCc3ccc(C(F)(F)F)cc3)cccc21 (configuration not stated)
2 = C#CCNC1CCc2c(SCc3ccc(Br)cc3)cccc21 (configuration not stated)
3 = C#CCNC1CCc2c(NCc3cccc(C(F)(F)F)c3)cccc21 (configuration not stated)
4 = C#CCNC1CCc2c(SCCc3ccc(OC)cc3)cccc21 (configuration not stated)
### Prompt Highest Ratio IC50 first, then in falling order down to the smallest. Please list the labels according to the requested order.
### Response 4, 3, 2, 1
(4: 13.5, 3: 2.21, 2: 0.37, 1: 0.096)
